# IC50 per record follows
- Tested on: SIHA (cervix carcinoma)
- Measurement Notes: Cytotoxicity (sulphorhodamine B), cancer cell line, Table 1B
- Format: cell-based
- Experimental Setup: Homo sapiens, SiHa, 72 h
Use µM as the unit, but write only the number.

smiles_string=COC(=O)CS(=O)(=O)CC(=O)O[C@@H](C(=O)O[C@H]1C[C@@]2(O)[C@@H](OC(=O)c3ccccc3)[C@@H]3[C@]4(OC(C)=O)CO[C@@H]4C[C@H](O)[C@@]3(C)C(=O)[C@H](OC(C)=O)C(=C1C)C2(C)C)[C@@H](NC(=O)c1ccccc1)c1ccccc1 test_system="SIHA (cervix carcinoma)" numeric_readout=100
smiles_string=CC(=O)O[C@H]1C(=O)[C@@]2(C)[C@H]([C@H](OC(=O)c3ccccc3)[C@]3(O)C[C@H](OC(=O)[C@H](OC(=O)OCCS(=O)(=O)c4ccc([N+](=O)[O-])cc4)[C@@H](NC(=O)c4ccccc4)c4ccccc4)C(C)=C1C3(C)C)[C@]1(OC(C)=O)CO[C@@H]1C[C@@H]2O test_system="SIHA (cervix carcinoma)" numeric_readout=10
smiles_string=CC(=O)O[C@H]1C(=O)[C@]2(C)[C@@H](OC(=O)CSCC(=O)O)C[C@H]3OC[C@@]3(OC(C)=O)[C@H]2[C@H](OC(=O)c2ccccc2)[C@]2(O)C[C@H](OC(=O)[C@H](OC(=O)CSCC(=O)O)[C@@H](NC(=O)c3ccccc3)c3ccccc3)C(C)=C1C2(C)C test_system="SIHA (cervix carcinoma)" numeric_readout=10

Let us move to another entry and its IC50.
**Query** Please give the measured IC50 for this compound: "CC(=O)O[C@H]1C(=O)[C@@]2(C)[C@H]([C@H](OC(=O)c3ccccc3)[C@]3(O)C[C@H](OC(=O)[C@H](OC(=O)OCCS(=O)(=O)c4ccc(N)cc4)[C@@H](NC(=O)c4ccccc4)c4ccccc4)C(C)=C1C3(C)C)[C@]1(OC(C)=O)CO[C@@H]1C[C@@H]2O"
**Result** 10
